B1: ANKRD40 (parent)
chain: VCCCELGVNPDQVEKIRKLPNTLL

- Variants of: B1
- ASSAY_REMARKS: protein stability index of a GFP-peptide fusion (GPS, HEK-293T) (PSI 1-6); higher = more stable;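 further: lentivirally expressed fusions sorted by FACS into six bins by GFP to DsRed ratio, PSI derived from sequencing read proportions per bin multiplied by bin number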
- CONDITION_LABEL: c terminus: a fixed tail appended
The entries below come with measured protein stability index values attached.
Please reply with the number alone, leaving off any unit.

[[record]]
variant_id = "N9L"
assay_result = 1.97

[[record]]
variant_id = "L19D"
assay_result = 2.9

[[record]]
variant_id = "N9E"
assay_result = 1.7


Reported protein stability index for T22D : what is it?
2.5

Reported protein stability index for R17A : what is it?
1.81

Reported protein stability index for E14R : what is it?
1.05

Reported protein stability index for C3H : what is it?
2.18

Reported protein stability index for Q12I : what is it?
2.38

Reported protein stability index for N9M : what is it?
2.23

Reported protein stability index for E5S : what is it?
2.81

Reported protein stability index for P20A : what is it?
1.88

Reported protein stability index for L24Y : what is it?
1.84

Reported protein stability index for P20S : what is it?
1.95
